Biological target: T1, hROR2-Fc (human ROR2 Fc fusion protein) (human, UniProt Q01974 34-403, limits assumed)
T1 construct: Given both as hROR2-Fc and as Fc-hROR2, so the order of the two parts is not certain; also called Fc-hROR2; not shown: human Fc part (captured by a mouse anti-human IgG CH2 / Fcγ mAb)
Test: SPR, Biacore X100; hROR2-Fc captured, Fab injected
Reported Kd is given for each of the following binders.

Answered examples (2):
XBR2-401-hX3.12.5 Fab (affinity matured and humanized) (Fab, V domains shown, Fab expressed in E. coli) VH: EVQLVESGGGLIQPGGSLRLSCAASGFTVSSYGVTWVRQAPGKGLEWVSYINTAGNTYYASWAKSRFTISRDNSKNTLYLQMNSLRAEDTAVYYCARDDRWSLNIWGQGTLVTVSS VL: DPMLTQSPSSLSASVGDRVTITCQASQSISSDLSWYQQKPGKAPKLLIYQASTLASGVPSRFKGSGYGTEYTLTISSLQPEDFATYYCLGGYADASYRTAFGGGTKLEIK    2.6 nM
h401.6 Fab (hX3.12.6 framework regions with parental 401 CDR sequences) (Fab, V domains shown, this is an inference) VH: EVQLVESGGGLVQPGGSLRLSCAASGFTFSSYGVTWVRQAPGKGLEWVSYINTAGNTYYASWAKSRFTISRDNAKNSLYLQMNSLRAEDTAVYYCARDWTSLNIWGQGTLVTVSS VL: DPMLTQSPSSLSASVGDRVTITCQASQSISSDLSWYQQKPGKAPKLLIYQASTLASGVPSRFKGSGYGTEYTLTISSLQPEDFATYYCLGGYADASYRTAFGGGTKLEIK    16 nM

// moving on: another record for Kd
Consider the binder shown here: hX3.12.7 Fab (Fab, V domains shown, The text says that hX3.12.5 to hX3.12.8 all utilized VL2) VH: EQQVVESGGGLVQPGGSLRLSCAVSGFSLSSYGVTWVRQAPGKGLEWIGYINTAGNTYYASWAKSRFTISRNTNENTVYLQMNSLRAEDTAVYFCARDDRWSLNIWGQGTLVTVSS VL: DPMLTQSPSSLSASVGDRVTITCQASQSISSDLSWYQQKPGKAPKLLIYQASTLASGVPSRFKGSGYGTEYTLTISSLQPEDFATYYCLGGYADASYRTAFGGGTKLEIK What is its recorded Kd?
1.4 nM
